Please respond with reported folding stability dG unfold for every item in the list.
- assaySummary: folding stability dG unfold from trypsin proteolysis; higher = more stable
Answer in kcal/mol, number only, no unit symbol.

Inquiry: Which measured folding stability dG unfold value corresponds to SAGGSAGGSAKPPVTLTILVKNPETGEWVRLEVEFLPDGTVKITVTNPNGEKYTFTFKLPPSAGGSAGGSAG [r3_61_TrROS_Hall] ?
Reply text: 3.67

Inquiry: Which measured folding stability dG unfold value corresponds to SAGGSAGGSAGMEISTKTLPGDKYELTITLPDSKGTPITVTITFTSEEEAKKKLEEIIKKSAGGSAGGSAGG [r11_819_JUSTAS] ?
Reply text: 1.29

Inquiry: Which measured folding stability dG unfold value corresponds to SAGGSAGSMSPEEVAERIRQEALARDPNWTVEVTPLPGPRPVLRLEIYRVDPNSDSVTPVSTLVVGSAGGSA [r15_682_JUSTAS] ?
Reply text: 0.857

Inquiry: Which measured folding stability dG unfold value corresponds to SAGGSAGGSAGGPKLVLKIKTEIKIEKKLEFDPETGELTEEIEIEIKIEIELEPLPEGLSAGGSAGGSAGGS [r10_376_TrROS_Hall] ?
Reply text: 1.32

Inquiry: Which measured folding stability dG unfold value corresponds to SAGGSAGGSAGGELKAKFETFPSPYGKVILAEAEFEEPNLLAAIVIDEDGVPHLLVVSPDSAGGSAGGSAGG [r7_187_TrMRF] ?
Reply text: 1.13

Inquiry: Which measured folding stability dG unfold value corresponds to SAGGSAGGSMIVVPESVSPEEAEATARQVAQELGISPDTPLEVEIKEVKTGENSVYEIRVTLRSAGGSAGGS [r12_252_JUSTAS] ?
Reply text: 0.097

Inquiry: Which measured folding stability dG unfold value corresponds to SAGGSAGGSSLLVLRELADGGVALHLIDVEPDEPVGVETVLDEFRELHPDTPPLPVLILRPDPSAGGSAGGS [r12_262_TrMRF] ?
Reply text: 0.251

---

- assaySummary: folding stability dG unfold from chymotrypsin proteolysis; higher = more stable
observationType: folding stability dG unfold (kcal/mol)
Answer in kcal/mol, number only, no unit symbol.

Inquiry: Which measured folding stability dG unfold value corresponds to SAGGSDSLVTLERVEVTELEEFEEDDRPFLVKRTYTIEKVVTTDPKTGKVTTETTVTSKEEVIPPELNSAGG [r13_810_JUSTAS] ?
Reply text: 0.801

Inquiry: Which measured folding stability dG unfold value corresponds to SAGGSAGGSSSATLAADETATLRFRVTLTFGSGVRSGTADLSGSVSATVEVDVEIEVRNLADDSAGGSAGGS [r12_668_TrMRF] ?
Reply text: 4.62

Inquiry: Which measured folding stability dG unfold value corresponds to SAGGSAGGSAGGKIYYLDKDLFVIDLPDPKTGKPIKIAIGGDPNRPDEILKLAKELAESSAGGSAGGSAGGS [r10_379_TrMRF] ?
Reply text: -0.398

Inquiry: Which measured folding stability dG unfold value corresponds to SAGGSAGGSAGDVEVRFEVKFTPDGTLIIKAEIRLPDIPDVTIRVEAVILPNGEILVKVSSAGGSAGGSAGG [r11_483_TrMRF] ?
Reply text: 3.06

Inquiry: Which measured folding stability dG unfold value corresponds to SAGGSMKITKIEIEKLPNGEYKITITKDENGNITVTVTNKNGKKKTITLKVKPEDVEEVLKELLKKSAGGSA [r2_298_TrROS_Hall] ?
Reply text: 3.01

Inquiry: Which measured folding stability dG unfold value corresponds to SMKTVTLNFPSLSEEEVRALAEELEATGRYRVEKIDSSTPNIKVTVLEEPPEPRPPPPPALVRDADARAASA [r9_830_JUSTAS] ?
Reply text: 1.83

Inquiry: Which measured folding stability dG unfold value corresponds to SAGGSAGGSKIKIYPYSTKGKNEVYYLIETENNYLYIKVTIYYDPKTGKPVKIEIKEIFTLPKSAGGSAGGS [r12_70_TrMRF] ?
Reply text: 3.07
